B1: Zinc finger MYM-type protein 3, residues 405 to 444; numbered along this chain, Q14202 (parent)
chain: DATRCSICQKTGEVLHEVSNGSVVHRLCSDSCFSKFRANK

- Variants of: B1
- ASSAY METHOD TEXT: abundance fitness (aPCA) (normalised: wild type 0, dead -1); higher = more abundant; growth selection in yeast, the domain comes from the species named
- CONDITION PARAMETERS: Homo sapiens
Would you mind sorting the entries by abundance fitness according to these classes? low bracket = under -0.5, middle bracket = from -0.5 up to 0.05, high bracket = 0.05 and over

[Q] # bin lookup: classify K35D by its abundance fitness
[A] high bracket

[Q] Param item: S29V
[A] low bracket

[Q] Param item: F33T
[A] middle bracket

[Q] Param item: E13I
[A] middle bracket

[Q] Param item: K10P
[A] low bracket

[Q] Param item: C32V
[A] low bracket

[Q] Param item: C32Q
[A] middle bracket

[Q] Param item: T11H
[A] high bracket

[Q] Param item: S19K
[A] high bracket

[Q] Param item: V23E
[A] high bracket
